test: Plasma pharmacokinetics after 2-hr IV infusion; conditions: human, plasma, intravenous, 17 mg/m2, Cmax, Mean, Day 15, 17 mg/m^2
attributeMeasured: Cmax (ng/mL)
Quick reminder: number only, in ng/mL, skip the unit.

// query Could you tell me which Cmax is on file for CCc1cnn2c(NCc3ccc[n+]([O-])c3)cc(N3CCCC[C@H]3CCO)nc12 ?
// result 634

---

assay: Plasma pharmacokinetics after 2-hr IV infusion; conditions: human, plasma, intravenous, 17 mg/m2, AUC(I), Mean, Day 15, 17 mg/m^2
attributeMeasured: AUC (ng·h/mL)
Quick reminder: number only, in ng·h/mL, skip the unit.

// query Could you tell me which AUC is on file for CCc1cnn2c(NCc3ccc[n+]([O-])c3)cc(N3CCCC[C@H]3CCO)nc12 ?
// result 1260

---

test: Plasma pharmacokinetics after 2-hr IV infusion; conditions: human, plasma, intravenous, 5 mg/m2, AUC(I), Mean, Day 1, 5 mg/m^2
attributeMeasured: AUC (µg·h/mL)
Quick reminder: number only, in µg·h/mL, skip the unit.

// query Could you tell me which AUC is on file for CCc1cnn2c(NCc3ccc[n+]([O-])c3)cc(N3CCCC[C@H]3CCO)nc12 [Dinaciclib] ?
// result 0.191

---

test: Plasma pharmacokinetics after 2-hr IV infusion; settings: human, plasma, intravenous, 14 mg/m2, Cmax, Mean, Day 1, 14 mg/m^2
attributeMeasured: Cmax (ng/mL)
Quick reminder: number only, in ng/mL, skip the unit.

// query Could you tell me which Cmax is on file for CCc1cnn2c(NCc3ccc[n+]([O-])c3)cc(N3CCCC[C@H]3CCO)nc12 ?
// result 404

---

assay: Plasma pharmacokinetics after 2-hr IV infusion; conditions: human, plasma, intravenous, 7 mg/m2, T1/2, Mean, Day 15, 7 mg/m^2
attributeMeasured: half-life (h)
Quick reminder: number only, in h, skip the unit.

// query Could you tell me which half-life is on file for CCc1cnn2c(NCc3ccc[n+]([O-])c3)cc(N3CCCC[C@H]3CCO)nc12 [Dinaciclib] ?
// result 2.31

---

experiment: Plasma pharmacokinetics after 2-hr IV infusion; conditions: human, plasma, intravenous, 10 mg/m2, T1/2, Mean, Day 15, 10 mg/m^2
attributeMeasured: half-life (h)
Quick reminder: number only, in h, skip the unit.

// query Could you tell me which half-life is on file for CCc1cnn2c(NCc3ccc[n+]([O-])c3)cc(N3CCCC[C@H]3CCO)nc12 ?
// result 2.82

---

assay: Plasma pharmacokinetics after 2-hr IV infusion; details: human, plasma, intravenous, 10 mg/m2, Cmax, Mean, Day 1, 10 mg/m^2
attributeMeasured: Cmax (ng/mL)
Quick reminder: number only, in ng/mL, skip the unit.

// query Could you tell me which Cmax is on file for CCc1cnn2c(NCc3ccc[n+]([O-])c3)cc(N3CCCC[C@H]3CCO)nc12 ?
// result 277

---

assay: Plasma pharmacokinetics after 2-hr IV infusion; details: human, plasma, intravenous, 10 mg/m2, AUC(I), Mean, Day 15, 10 mg/m^2
attributeMeasured: AUC (ng·h/mL)
Quick reminder: number only, in ng·h/mL, skip the unit.

// query Could you tell me which AUC is on file for CCc1cnn2c(NCc3ccc[n+]([O-])c3)cc(N3CCCC[C@H]3CCO)nc12 [Dinaciclib] ?
// result 592

Cited source for all entries: paper PMC4551390
